target entity: T1, human IL-6 (human, UniProt P05231 30-212)
T1 construct: IL-6 flowed over captured antibodies
T1 sequence (P05231 30-212 limits assumed): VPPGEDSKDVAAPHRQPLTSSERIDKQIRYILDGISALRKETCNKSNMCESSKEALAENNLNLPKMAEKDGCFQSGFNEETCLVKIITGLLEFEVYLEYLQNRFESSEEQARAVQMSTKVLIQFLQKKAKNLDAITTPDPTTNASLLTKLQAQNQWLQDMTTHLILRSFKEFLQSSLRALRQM
test: SPR Biacore, supernatant Ab on Protein A chip, 37 C
As shown below, each of these binders has a reported koff value.

binder | koff [s⁻¹]
anti-IL-6 antibody, heavy chain S35W, G66D / light chain M32L, M50D, N52S, M88Q (antibody, IgG1, V domains shown, Full IgG1 (Expi293); VL = variant III) VH: EVQLVESGGGLVQPGGSLRLSCAASGFTFSPFAMWWVRQAPGKGLEWVAKISPGGSWTYYSDTVTDRFTFSLDTSKSTAYLQMNSLRAEDTAVYYCARQLWGYYALDIWGQGTLVTVSS VL: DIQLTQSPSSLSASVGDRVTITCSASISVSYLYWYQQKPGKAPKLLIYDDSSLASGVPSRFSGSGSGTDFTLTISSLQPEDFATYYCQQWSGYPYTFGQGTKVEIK | 0.00591
anti-IL-6 antibody, heavy chain I51A, G66D / light chain M32L, M50D, N52S, M88Q (antibody, IgG1, V domains shown, Full IgG1 (Expi293); VL = variant III) VH: EVQLVESGGGLVQPGGSLRLSCAASGFTFSPFAMSWVRQAPGKGLEWVAKASPGGSWTYYSDTVTDRFTFSLDTSKSTAYLQMNSLRAEDTAVYYCARQLWGYYALDIWGQGTLVTVSS VL: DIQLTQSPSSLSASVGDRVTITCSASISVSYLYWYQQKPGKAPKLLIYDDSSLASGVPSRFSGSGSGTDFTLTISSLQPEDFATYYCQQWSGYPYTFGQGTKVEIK | 0.000899
anti-IL-6 antibody, heavy chain T63Q, G66D / light chain M32L, M50D, N52S, M88Q (antibody, IgG1, V domains shown, Full IgG1 (Expi293); VL = variant III) VH: EVQLVESGGGLVQPGGSLRLSCAASGFTFSPFAMSWVRQAPGKGLEWVAKISPGGSWTYYSDQVTDRFTFSLDTSKSTAYLQMNSLRAEDTAVYYCARQLWGYYALDIWGQGTLVTVSS VL: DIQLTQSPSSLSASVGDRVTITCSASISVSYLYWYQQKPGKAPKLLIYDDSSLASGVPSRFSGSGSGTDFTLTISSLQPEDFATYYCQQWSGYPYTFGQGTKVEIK | 0.000461
anti-IL-6 antibody, heavy chain T65V, G66D / light chain M32L, M50D, N52S, M88Q (antibody, IgG1, V domains shown, Full IgG1 (Expi293); VL = variant III) VH: EVQLVESGGGLVQPGGSLRLSCAASGFTFSPFAMSWVRQAPGKGLEWVAKISPGGSWTYYSDTVVDRFTFSLDTSKSTAYLQMNSLRAEDTAVYYCARQLWGYYALDIWGQGTLVTVSS VL: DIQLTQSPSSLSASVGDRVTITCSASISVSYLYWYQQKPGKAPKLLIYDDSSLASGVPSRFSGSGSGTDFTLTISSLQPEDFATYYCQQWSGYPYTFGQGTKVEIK | 0.000551
anti-IL-6 antibody, heavy chain S35Y, G66D / light chain M32L, M50D, N52S, M88Q (antibody, IgG1, V domains shown, Full IgG1 (Expi293); VL = variant III) VH: EVQLVESGGGLVQPGGSLRLSCAASGFTFSPFAMYWVRQAPGKGLEWVAKISPGGSWTYYSDTVTDRFTFSLDTSKSTAYLQMNSLRAEDTAVYYCARQLWGYYALDIWGQGTLVTVSS VL: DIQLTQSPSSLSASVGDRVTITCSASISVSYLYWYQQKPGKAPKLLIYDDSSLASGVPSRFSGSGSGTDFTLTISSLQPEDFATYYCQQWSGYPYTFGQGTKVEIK | 0.00404
anti-IL-6 antibody, heavy chain S35T, G66D / light chain M32L, M50D, N52S, M88Q (antibody, IgG1, V domains shown, Full IgG1 (Expi293); VL = variant III) VH: EVQLVESGGGLVQPGGSLRLSCAASGFTFSPFAMTWVRQAPGKGLEWVAKISPGGSWTYYSDTVTDRFTFSLDTSKSTAYLQMNSLRAEDTAVYYCARQLWGYYALDIWGQGTLVTVSS VL: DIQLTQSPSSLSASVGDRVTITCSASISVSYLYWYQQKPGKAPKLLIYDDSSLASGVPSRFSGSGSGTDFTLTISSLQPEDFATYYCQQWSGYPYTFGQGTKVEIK | 0.000711
anti-IL-6 antibody, heavy chain T65H, G66D / light chain M32L, M50D, N52S, M88Q (antibody, IgG1, V domains shown, Full IgG1 (Expi293); VL = variant III) VH: EVQLVESGGGLVQPGGSLRLSCAASGFTFSPFAMSWVRQAPGKGLEWVAKISPGGSWTYYSDTVHDRFTFSLDTSKSTAYLQMNSLRAEDTAVYYCARQLWGYYALDIWGQGTLVTVSS VL: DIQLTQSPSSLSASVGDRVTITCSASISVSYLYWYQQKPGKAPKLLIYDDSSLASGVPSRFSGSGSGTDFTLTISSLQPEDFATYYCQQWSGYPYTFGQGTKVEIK | 0.000423
anti-IL-6 antibody, heavy chain S35G, G66D / light chain M32L, M50D, N52S, M88Q (antibody, IgG1, V domains shown, Full IgG1 (Expi293); VL = variant III) VH: EVQLVESGGGLVQPGGSLRLSCAASGFTFSPFAMGWVRQAPGKGLEWVAKISPGGSWTYYSDTVTDRFTFSLDTSKSTAYLQMNSLRAEDTAVYYCARQLWGYYALDIWGQGTLVTVSS VL: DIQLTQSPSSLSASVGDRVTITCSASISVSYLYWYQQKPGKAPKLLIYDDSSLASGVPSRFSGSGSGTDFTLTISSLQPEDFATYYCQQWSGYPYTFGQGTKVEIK | 0.000781
anti-IL-6 antibody, heavy chain T63L, G66D / light chain M32L, M50D, N52S, M88Q (antibody, IgG1, V domains shown, Full IgG1 (Expi293); VL = variant III) VH: EVQLVESGGGLVQPGGSLRLSCAASGFTFSPFAMSWVRQAPGKGLEWVAKISPGGSWTYYSDLVTDRFTFSLDTSKSTAYLQMNSLRAEDTAVYYCARQLWGYYALDIWGQGTLVTVSS VL: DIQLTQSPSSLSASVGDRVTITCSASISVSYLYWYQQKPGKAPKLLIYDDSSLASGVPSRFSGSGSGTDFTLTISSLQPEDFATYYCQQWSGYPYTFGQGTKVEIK | 0.000454
